Here the recorded % of binding in the absence of HGF is given for each entry.
# TARGET SYSTEM: T1, cMet-Fc fusion protein (extracellular domain of the cMet receptor expressed as an Fc-fusion protein) (human, UniProt P08581 25-932)
# T1 construct: extracellular domain; also called soluble cMet-Fc-fusion protein; soluble cMet receptor; not shown: Fc part
# T1 sequence (P08581 25-932): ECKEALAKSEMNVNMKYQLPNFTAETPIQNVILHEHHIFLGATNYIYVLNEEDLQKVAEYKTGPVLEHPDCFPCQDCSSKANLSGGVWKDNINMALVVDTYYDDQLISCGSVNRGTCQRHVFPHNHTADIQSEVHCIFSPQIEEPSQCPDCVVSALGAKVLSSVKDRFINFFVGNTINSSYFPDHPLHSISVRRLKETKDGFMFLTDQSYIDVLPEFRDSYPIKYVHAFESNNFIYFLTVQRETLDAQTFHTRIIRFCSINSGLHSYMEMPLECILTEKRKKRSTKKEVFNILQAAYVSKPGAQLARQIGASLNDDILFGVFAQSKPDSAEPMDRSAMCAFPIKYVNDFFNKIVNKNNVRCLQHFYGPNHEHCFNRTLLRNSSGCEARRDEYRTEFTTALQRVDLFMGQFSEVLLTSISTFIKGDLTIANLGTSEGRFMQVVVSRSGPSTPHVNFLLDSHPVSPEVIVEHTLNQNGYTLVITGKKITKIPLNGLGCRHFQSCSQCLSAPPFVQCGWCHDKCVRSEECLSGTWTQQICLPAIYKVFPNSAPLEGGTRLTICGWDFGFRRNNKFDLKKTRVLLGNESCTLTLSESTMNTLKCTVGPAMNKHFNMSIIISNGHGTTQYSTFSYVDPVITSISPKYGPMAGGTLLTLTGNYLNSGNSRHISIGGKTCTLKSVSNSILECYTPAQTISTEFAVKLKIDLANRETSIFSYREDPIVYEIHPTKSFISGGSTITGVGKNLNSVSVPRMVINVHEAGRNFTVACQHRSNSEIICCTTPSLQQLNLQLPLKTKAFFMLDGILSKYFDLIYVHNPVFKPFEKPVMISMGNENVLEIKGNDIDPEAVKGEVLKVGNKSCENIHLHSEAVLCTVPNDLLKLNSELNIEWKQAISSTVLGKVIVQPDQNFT
# ASSAY DETAILS: phage ELISA on cMet-Fc, competitor HGF 100 ng/mL

Reference set (5 entries):
| BINDER | EXPERIMENTAL RESULT |
| --- | --- |
| GSQNNCEYGSRGSSFCLAMAP [465-C06 peptide-displaying phage (SEQ ID NO: 377)] | 184% |
| AQLFQYLWHDDPQGAFFQLSMW [98-F05 peptide-displaying phage (SEQ ID NO: 483)] | 88% |
| AGYPECKDNYHWCEWKGT [457-A09 peptide-displaying phage (SEQ ID NO: 024)] | 27% |
| AQFPLEFDVPNFSYHWLVSFNP [118-C07 peptide-displaying phage (SEQ ID NO: 460)] | 100% |
| GSILYCINRNDPQCPYTAP [465-C10 peptide-displaying phage (SEQ ID NO: 101)] | 95% |

# return recorded % of binding in the absence of HGF for entry AQEWQTWTWNMIEVISENKTP [117-F03 peptide-displaying phage (SEQ ID NO: 468)]
104%

# return recorded % of binding in the absence of HGF for entry AQHQYGQMMVLHIQYDMGEFIP [117-F08 peptide-displaying phage (SEQ ID NO: 462)]
102%

# return recorded % of binding in the absence of HGF for entry GSTMSCWRWGRDAYSCNQMAP [557-A12 peptide-displaying phage (SEQ ID NO: 372)]
87%

# return recorded % of binding in the absence of HGF for entry AGPWKCTGPPTFSCIQFGT [548-D08 peptide-displaying phage (SEQ ID NO: 090)]
97%

# return recorded % of binding in the absence of HGF for entry AGSSPCKGWPTFECYFYGT [552-F01 peptide-displaying phage (SEQ ID NO: 087)]
56%

# return recorded % of binding in the absence of HGF for entry AGMDFCEGFWFLCIGNAT [571-C11 peptide-displaying phage (SEQ ID NO: 035)]
107%

# return recorded % of binding in the absence of HGF for entry AGAFFCSGPPTFMCSLYGT [550-G07 peptide-displaying phage (SEQ ID NO: 098)]
63%

# return recorded % of binding in the absence of HGF for entry AGFVNCKGPPTFECILTGT [538-F08 peptide-displaying phage (SEQ ID NO: 057)]
55%

# return recorded % of binding in the absence of HGF for entry AQHSVQRQMDVWMPVQFMAGFT [02-B08 peptide-displaying phage (SEQ ID NO: 467)]
84%

# return recorded % of binding in the absence of HGF for entry AGMTLCAGPPTFECYEVGT [552-F02 peptide-displaying phage (SEQ ID NO: 092)]
60%

Values compiled from patent US20120039802A1.
